- tested.on: Recombinant Tdp1 (Homo sapiens (Human), UniProt Q9NUW8)
- Sequence (Q9NUW8 whole entry): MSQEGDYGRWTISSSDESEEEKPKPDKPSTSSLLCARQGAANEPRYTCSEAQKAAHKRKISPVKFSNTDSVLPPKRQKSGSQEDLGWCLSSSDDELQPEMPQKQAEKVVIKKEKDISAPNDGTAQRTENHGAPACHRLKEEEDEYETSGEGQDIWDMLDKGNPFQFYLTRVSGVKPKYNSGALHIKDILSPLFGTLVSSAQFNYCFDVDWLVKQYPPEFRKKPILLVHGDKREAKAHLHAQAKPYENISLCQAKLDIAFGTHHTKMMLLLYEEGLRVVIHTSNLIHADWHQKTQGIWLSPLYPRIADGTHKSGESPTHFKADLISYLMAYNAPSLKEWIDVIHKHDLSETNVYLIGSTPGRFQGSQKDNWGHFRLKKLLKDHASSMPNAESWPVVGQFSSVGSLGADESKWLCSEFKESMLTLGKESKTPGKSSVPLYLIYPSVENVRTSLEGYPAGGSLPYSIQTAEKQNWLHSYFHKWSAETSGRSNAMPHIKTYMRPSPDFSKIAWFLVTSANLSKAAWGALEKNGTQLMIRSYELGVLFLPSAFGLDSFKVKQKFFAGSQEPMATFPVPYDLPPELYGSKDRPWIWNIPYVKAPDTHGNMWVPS
- assay: Secondary radiolabel gel-based Tdp1 assay (N14Y substrate)
- Format: biochemical
- protocol.conditions: 1 nM N14Y, 0.1 nM Tdp1, 20 min at 25° C.; N/D = not detectable; read-out: Activity (Gel)
pIC50: −log10 of the molar value.
observable: pIC50

Consider the reported pIC50 for these compounds:
1) CN(C)[C@@H]1C(O)=C(C(N)=O)C(=O)[C@]2(O)C(O)=C3C(=O)c4c(O)ccc(Cl)c4[C@](C)(O)[C@H]3C[C@@H]12 :: 4.88
2) CN(C)C1C(O)=C(C(N)=O)C(=O)[C@@]2(O)C(O)=C3C(=O)c4c(O)cccc4[C@](C)(O)C3C(O)C12 (stereo partly shown) :: 5.10
3) CN(C)[C@H]1C(O)=C(C(=O)NCN2CCCC2)C(=O)[C@]2(O)C(O)=C3C(=O)c4c(O)cccc4[C@@](C)(O)[C@H]3C[C@@H]12 :: 4.52
4) CN(C)[C@H]1C(O)=C(C(N)=O)C(=O)[C@]2(O)C(O)=C3C(=O)c4c(O)cccc4[C@@](C)(O)[C@H]3C[C@@H]12 :: 5.00

[a] CN(C)C1C(O)=C(C(N)=O)C(=O)[C@@]2(O)C(O)=C3C(=O)c4c(O)ccc(Cl)c4[C@](C)(O)C3CC12 (stereo partly shown)
[b] CN(C)C1C(O)=C(C(N)=O)C(=O)[C@]2(O)C(O)=C3C(=O)c4c(O)cccc4[C@](C)(O)C3C(O)C12 (stereo partly shown)
[c] CN(C)C1C(O)=C(C(N)=O)C(=O)[C@@]2(O)C(O)=C3C(=O)c4c(O)cccc4[C@@](C)(O)C3[C@H](O)C12 (stereo partly shown)
Exercise: Order each entry by recorded pIC50, climbing from the minimum. Form entry: ranked labels (order as requested).
Solution: a, b, c
(a: 4.70, b: 5.00, c: 5.52)

====

- tested.on: Recombinant Tdp1 (Homo sapiens (Human), UniProt Q9NUW8)
- assay: AlphaScreen Tdp1 assay (qHTS, FITC/biotin phosphotyrosine DNA substrate)
- Type: biochemical
- protocol.conditions: 1,536-well AlphaScreen qHTS; N/D = not detectable; read-out: Activity (qHTS) IC50
observable: IC50 (µM)

1) CN(C)C1C(O)=C(C(N)=O)C(=O)[C@@]2(O)C(O)=C3C(=O)c4c(O)ccc(Cl)c4[C@](C)(O)C3CC12 (some centres unmarked) :: 3.16
2) CN(C)[C@@H]1C(O)=C(C(N)=O)C(=O)[C@]2(O)C(O)=C3C(=O)c4c(O)ccc(Cl)c4[C@](C)(O)[C@H]3C[C@@H]12 :: 2.82
3) CN(C)[C@H]1C(O)=C(C(=O)NCN[C@@H](CCCCN)C(=O)O)C(=O)[C@]2(O)C(O)=C3C(=O)c4c(O)cccc4[C@@](C)(O)[C@H]3C[C@@H]12 :: 12.6

[a] CN(C)[C@H]1C(O)=C(C(=O)NCN2CCCC2)C(=O)[C@]2(O)C(O)=C3C(=O)c4c(O)cccc4[C@@](C)(O)[C@H]3C[C@@H]12
[b] CN(C)C1C(O)=C(C(N)=O)C(=O)[C@@]2(O)C(O)=C3C(=O)c4c(O)cccc4[C@@](C)(O)C3[C@H](O)C12 (some centres unmarked)
Exercise: // returns a or b , whichever has the lower IC50 // output: label of the selected item
Solution: a
(a: 1.26 µM, b: 4.47 µM)
